Property: IC50; scope: individual compounds
system-tested: CK1δ (Homo sapiens, UniProt P48730)
Sequence (P48730 whole entry): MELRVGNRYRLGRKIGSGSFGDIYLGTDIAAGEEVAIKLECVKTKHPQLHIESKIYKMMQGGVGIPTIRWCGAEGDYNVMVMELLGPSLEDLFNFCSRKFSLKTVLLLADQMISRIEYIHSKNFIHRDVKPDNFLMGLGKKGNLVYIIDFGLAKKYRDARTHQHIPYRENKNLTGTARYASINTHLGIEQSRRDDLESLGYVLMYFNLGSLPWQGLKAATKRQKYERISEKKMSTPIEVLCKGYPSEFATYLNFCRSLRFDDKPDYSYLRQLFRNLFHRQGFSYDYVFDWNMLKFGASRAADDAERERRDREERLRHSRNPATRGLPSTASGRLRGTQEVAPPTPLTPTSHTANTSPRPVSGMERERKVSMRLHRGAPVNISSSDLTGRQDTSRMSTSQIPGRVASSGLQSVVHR
procedure-text: CK1δ kinase assay (Caliper LabChip electrophoretic separation of fluoresceinated peptide substrate and product)
Format: biochemical
condition-label: 200 pM CK1δ, 50 μM ATP, 1.5 μM peptide, 22 hours at room temperature; read-out: CK1δ IC50 range
outcome-measure: IC50

NC(=O)c1c(-c2ccc(Cl)c(Cl)c2)nn2c1CN(C(=O)N[C@@H]1CC[C@@H]1C(F)F)CC2 [Compound 240] ... 0.01 to 10 nM
NC(=O)c1c(-c2ccc(F)c(Cl)c2)nn2c1CN(C(=O)NC1CCC(F)(F)CC1)C[C@@H]2C(F)F [Compound A14] ... 0.01 to 10 nM
C[C@]1(NC(=O)N2CCn3nc(-c4ccc(F)c(Cl)c4)c(C(N)=O)c3C2)C[C@H](F)C1 [Compound 275] ... 0.01 to 10 nM
N#Cc1ccc(NC(=O)N2CCn3nc(-c4cccc(Cl)c4)c(C(N)=O)c3C2)cc1 [Compound 166] ... 0.01 to 10 nM
NC(=O)c1c(-c2cccc(F)c2)nn2c1CN(C(=O)NCCc1ccc(F)cc1)CC2 [Compound 42] ... 10 to 100 nM
CC(C)(C)NC(=O)N1CCn2nc(-c3cccc4ncccc34)c(C(N)=O)c2C1 [Compound 132] ... 100 to 2000 nM
NC(=O)c1c(-c2ccc(F)c(Cl)c2)nn2c1CN(C(=O)NC1(C(F)F)CC(F)(F)C1)CC2 [Compound 304] ... 0.01 to 10 nM
